# System: NCI/ADR-RES ovarian
# measurement_protocol: NCI-60 one-dose screen, 48 h (100 = growth as untreated, 0 = no growth, -100 = all killed)
# experimental_setup: 10 µM unless noted
The panel holds about 83,000 compounds, 20% with a hit somewhere; the sample as a whole holds those more often.
property_name: growth (%)
Give the value, in units of %, as a plain number.

Looking up CC12O[C@H](C[C@@H](OC(=O)CCC(=O)O)[C@H]1O)n1c3ccccc3c3c4c(c5c6ccccc6n2c5c31)C(=O)NC4=O , I see its growth listed as 58.7

Looking up COc1ccc(CCCc2c3[n+](cc4c(OC)c(OC)ccc24)CCc2cc4c(cc2-3)OCO4)cc1 , I see its growth listed as 93.7

Looking up N#Cc1c(-c2ccc(Cl)cc2)csc1NC(=O)Nc1cccc(C(F)(F)F)c1 , I see its growth listed as 11.6

Looking up CO/C=C/C(=O)c1cc2cnc3c(=N)cc(NC(=O)C(C)C)c([nH]1)c23 , I see its growth listed as -9.63

Looking up COc1cc(CCc2cc(NC(=O)c3ccc(N4C[C@@H](C)N[C@@H](C)C4)cc3)n[nH]2)cc(OC)c1 , I see its growth listed as 91.3

Looking up O=C(Cn1c(=O)ccn(CCCCCCCCOc2ccc(Br)cc2)c1=O)Nc1ccc(Oc2ccc(Cl)cc2)cc1 , I see its growth listed as 42.7

Looking up CCN(CC)CCCC(C)Nc1cc(-c2ccc(C(F)(F)F)cc2)c(C#N)c2nc3ccccc3n12 (stereo not drawn) , I see its growth listed as 32.2

Looking up CCN(CC)Cc1cc(Nc2cc(C(F)(F)F)c(C#N)c3nc4ccccc4n23)ccc1O , I see its growth listed as 6.79
